Please go through the items and note down their % β-catenin induction.
test system: d-U937 cells; test: Accumulation of β catenin in d-U937 cells (assay m); type: cell-based, human; settings: test compound 1 μg/mL; percentage relative to Reference Compound at 1 μg/mL
Give bare numbers, in %.

> print(dat)
                                   compound  target.entity           test.readout  endpoint.value
1  COc1c(CP(C)(C)=O)cc(C(C)(C)C)cc1NC(=O)Nc1ccc(Oc2ccnc(Nc3ccccc3)c2)c2ccccc12 [Example 24]   d-U937 cells  % β-catenin induction            −3.0
2  COc1cncc(Nc2cc(Oc3ccc(NC(=O)Nc4cc(C(C)(C)C)cc(P(C)(C)=O)c4OC)c4ccccc34)ccn2)c1 [Example 34]   d-U937 cells  % β-catenin induction             2.0
3  COCCOCCOCCOc1cc(Nc2cc(Oc3ccc(NC(=O)Nc4cc(C(C)(C)C)cc(P(C)(C)=O)c4OC)c4ccccc34)ccn2)cc(OC)c1 [Example 2]   d-U937 cells  % β-catenin induction             4.0

Consider now this further compound.
Exercise: Consider the compound COc1c(CC(N)=O)cc(C(C)(C)C)cc1NC(=O)Nc1ccc(Oc2ccnc(Nc3ccn(C)n3)c2)c2ccccc12 [38(o)] and give its recorded % β-catenin induction.
Solution: 13.0
